Values compiled from patent US20140335050A1.

- System: MU89 melanoma cells
- Experiment description: Tumor cell/T cell co-culture IL-2 ELISA (Melan-A/MART-1 specific TCR Jurkat line J-TCR-M1 as responder)
- Assay type: cell-based, human
- Test context: about 10 μM, 72 hours treatment, then 24 hours co-culture
- Source text: The assay relies on the use of an antigen-specific responder T cell line. […] The chosen TCR reacts specifically to a Melan-A/MART-1 decapeptide (26[…]35) presented by HLA-A2, with appropriate triggering of T cell activation. […] We evaluated several candidate melanoma cell lines for the ability to stimulate the J-TCR-M1 cell line. […]
Readout name: Fold increase (IL-2 relative to untreated controls), hits from pilot screen

- COc1ccc(Cl)cc1C(=O)NCCc1ccc(S(=O)(=O)NC(=O)NC2CCCCC2)cc1 [Glyburide]: 2.6 fold
- C[C@@]1(CO)[C@H](O)CC[C@@]2(C)[C@H]1CC[C@H]1C[C@@H]3C[C@@]12CC[C@]3(O)CO [Aphidicolin]: 2.0 fold
- COc1c(C=O)c(O)cc2c1C(=O)c1ccccc1C2=O [Damnacanthal]: 2.1 fold
- O=C1CN(/N=C/c2ccc(-c3ccc([N+](=O)[O-])cc3)o2)C(O)=N1 [Dantrolene]: 2.4 fold
- C=CCNC1=C2C[C@@H](C)C[C@H](OC)[C@H](O)[C@@H](C)/C=C(\C)[C@H](OC(N)=O)[C@@H](OC)/C=C\C=C(/C)C(=O)NC(=CC1=O)C2=O [17-AAG, 17-allylaminogeldanamycin]: 7.7 fold
- CCCCCCCCCCCCCCCCCCc1ccc(C(=O)C=CC(=O)O)cc1 [OBAA, 3-(4-octadecyl)benzoylacrylic acid]: 5.9 fold
- Fc1ccc(C(c2ccc(F)cc2)N2CCN(C/C=C/c3ccccc3)CC2)cc1 [Flunarizine]: 11.9 fold
- CCCCCCCCCCCCCC(=O)O[C@@H]1[C@@H](C)[C@@]2(O)[C@@H](C=C(CO)C[C@]3(O)C(=O)C(C)=C[C@@H]23)[C@@H]2C(C)(C)[C@]12OC(C)=O [PMA, phorbol-12-myristate-13 acetate]: 1.9 fold
